# protocol: Pharmacokinetic experiment, IV in rats
# Type: in vivo, rat
# applied_conditions: rat, plasma; male JVC/CAC rats, 1 mg/kg IV
Structures can show the parent of a compound that is named as a salt.
Assignment: determine reported half-life for the given compounds.
Give the number; h is assumed, so skip it.

Prompt: # get_value(readout='half-life', item= CC(C)CCNCc1ccc(Oc2ccc(C(N)=O)c(O)c2)c(F)c1 [Example 1A, hydrochloride salt] )
Completion: 2.9

Prompt: Subsequent entry: CC(C)CCNCc1ccc(Oc2cccc(O)c2)c(F)c1.Cl [Example 2A]
Completion: 0.7

---

# system: delta opioid receptor (Homo sapiens)
# Sequence (P41143 whole entry): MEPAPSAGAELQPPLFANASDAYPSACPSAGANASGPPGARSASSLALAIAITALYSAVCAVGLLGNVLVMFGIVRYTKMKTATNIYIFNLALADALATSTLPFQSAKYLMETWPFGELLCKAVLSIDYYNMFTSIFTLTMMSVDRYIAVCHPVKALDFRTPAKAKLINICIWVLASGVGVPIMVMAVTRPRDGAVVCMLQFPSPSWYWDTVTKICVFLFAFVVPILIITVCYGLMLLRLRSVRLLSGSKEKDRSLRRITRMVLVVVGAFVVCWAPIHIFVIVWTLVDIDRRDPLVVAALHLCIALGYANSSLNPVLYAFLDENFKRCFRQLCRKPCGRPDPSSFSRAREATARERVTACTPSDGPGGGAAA
# protocol: GTPγ[35S] binding assay at delta opioid receptor (antagonist vs BW-373U86)
# Format: biochemical
# Design: expressed in transfected cells
# applied_conditions: average Ki; membranes, challenged with BW-373U86 (1 nM)
Structures can show the parent of a compound that is named as a salt.
Output fulfilled for records whose Ki is lower than 2 nM, not fulfilled for records at or above 2 nM.

Prompt: Regarding NC(=O)c1ccc(Oc2c(F)cc(CNC3CCCCC3)cc2F)cc1O , kindly confirm whether its Ki is beneath 2 nM.
Completion: fulfilled

Prompt: Subsequent entry: NC(=O)c1ccc(Oc2ccc(CNCC3CCOCC3)cc2F)cc1O
Completion: not fulfilled

Prompt: Subsequent entry: NC(=O)c1ccc(Oc2ccc(CNCCC3CC3)cc2F)cc1O [Example 3A, hydrochloride salt]
Completion: fulfilled

Prompt: Subsequent entry: NC(=O)c1ccc(Oc2c(F)cc(CNCCC3CC3)cc2F)cc1O
Completion: fulfilled

Prompt: Subsequent entry: NC(=O)c1ccc(Oc2ccc(CNC[C@@H]3CCCO3)cc2F)cc1O
Completion: not fulfilled

Prompt: Subsequent entry: NC(=O)c1ccc(Oc2ccc(CNCC3(O)CCCCC3)cc2F)cc1O
Completion: not fulfilled

Prompt: Subsequent entry: NC(=O)c1ccc(Oc2c(F)cc(CNC3Cc4ccccc4C3)cc2F)cc1O
Completion: fulfilled

Prompt: Subsequent entry: NC(=O)c1ccc(Oc2ccc(CNC[C@H]3CCCO3)cc2F)cc1O
Completion: not fulfilled

Prompt: Subsequent entry: NC(=O)c1ccc(Oc2ccc(CNC3Cc4ccccc4C3)cc2F)cc1O
Completion: fulfilled

Prompt: Subsequent entry: CC[C@@H](NCc1ccc(Oc2ccc(C(N)=O)c(O)c2)c(F)c1)c1ccccn1
Completion: not fulfilled

Prompt: Subsequent entry: CC(C)CCNCc1cc(F)c(Oc2ccc(C(N)=O)c(O)c2)c(F)c1
Completion: fulfilled

Prompt: Subsequent entry: CC(C)OCCNCc1ccc(Oc2ccc(C(N)=O)c(O)c2)c(F)c1
Completion: fulfilled

Prompt: Subsequent entry: NC(=O)c1ccc(Oc2ccc(CNCCOc3ccccc3)cc2F)cc1O
Completion: fulfilled

Prompt: Subsequent entry: NC(=O)c1ccc(Oc2c(F)cc(CNCCC3CCOCC3)cc2F)cc1O
Completion: fulfilled

---

# protocol: Pharmacokinetic experiment, IV in rats
# Format: in vivo, rat
# applied_conditions: rat, plasma; male JVC/CAC rats, 1 mg/kg IV, average of two rats
Where a name gives a salt, the structure may show the parent alone.
result_type: clearance (mL/min/kg)
Give the number; mL/min/kg is assumed, so skip it.

Prompt: # get_value(readout='clearance', item= CC(C)CCNCc1ccc(Oc2ccc(C(N)=O)c(O)c2)c(F)c1 [Example 1A, hydrochloride salt] )
Completion: 18.6

Prompt: Subsequent entry: CC(C)CCNCc1ccc(Oc2cccc(O)c2)c(F)c1.Cl
Completion: 361
